For each of the molecules below, state its inhibition at 2.5 µM.
Tested on: LPS-stimulated PBMCs
protocol: Cytokine production in LPS-stimulated human PBMCs (ELISA)
Assay type: cell-based
conditionDescription: Homo sapiens, PBMC; LPS-stimulated PBMCs, compound at 2.5 uM, 1 hour preincubation, 20 hours; read-out: percent inhibition of IL-6 production

Below, each entry is followed by its recorded inhibition at 2.5 µM result.
[[record]]
entrysmiles = "C=CC(=O)N1CCN(c2c(C#N)c(=O)n(Cc3ccc(F)cc3)c3ccccc23)CC1"
recordedvalue = "< 10%"

[[record]]
entrysmiles = "N#Cc1c(NC2CN(C(=O)CCl)C2)c2ccccc2n(Cc2ccc(F)cc2)c1=O"
recordedvalue = "10 to 50%"

[[record]]
entrysmiles = "N#Cc1c(NC2CN(C(=O)c3ccncc3)C2)c2ccccc2n(Cc2ccc(F)cc2)c1=O"
recordedvalue = "10 to 50%"


Next item in the queue.
inhibition at 2.5 µM in this record for `Cn1c(=O)c(C#N)c(NC2CCN(C(=O)c3cccs3)CC2)c2ccccc21` : 10 to 50%

###

System: LPS-stimulated PBMCs
protocol: Cytokine production in LPS-stimulated human PBMCs (ELISA)
Assay type: cell-based
conditionDescription: Homo sapiens, PBMC; LPS-stimulated PBMCs, compound at 25 uM, 1 hour preincubation, 20 hours; read-out: percent inhibition of TNF-α production
For each of the compounds below, state its inhibition at 25 µM.

Below, each entry is followed by its recorded inhibition at 25 µM result.
[[record]]
compound = "CC(C)C(=O)c1c(C(C)C)nn2ccccc12 [Ibudilast, reference compound]"
recordedvalue = "> 70%"

[[record]]
compound = "Cn1c(=O)c(C#N)c(NC2CCN(C(=O)c3cccs3)CC2)c2ccccc21 [Compound 5]"
recordedvalue = "50 to 70%"

[[record]]
compound = "C=CC(=O)N1CC(Nc2c(C#N)c(=O)n(CCOCC)c3ccccc23)C1 [Compound 3]"
recordedvalue = "10 to 50%"

[[record]]
compound = "N#Cc1c(NC2CN(C(=O)c3cccs3)C2)c2ccccc2n(Cc2ccc(F)cc2)c1=O [Compound 8]"
recordedvalue = "10 to 50%"

[[record]]
compound = "N#Cc1c(NC2CN(C(=O)c3ccncc3)C2)c2ccccc2n(Cc2ccc(F)cc2)c1=O [Compound 7]"
recordedvalue = "> 70%"

[[record]]
compound = "C=CC(=O)N1CCC(Nc2c(C#N)c(=O)n(C)c3ccccc23)CC1 [Compound 4]"
recordedvalue = "10 to 50%"


Hey, can you go through the list below and give me inhibition at 25 µM for every item?
1. C=CC(=O)N1CCN(c2c(C#N)c(=O)n(Cc3ccc(F)cc3)c3ccccc23)CC1 [Compound 2]
2. Cn1c(=O)c(C#N)c(NC2CN(C(=O)c3cccs3)C2)c2ccccc21 [Compound 6]
3. N#Cc1c(NC2CN(C(=O)CCl)C2)c2ccccc2n(Cc2ccc(F)cc2)c1=O [Compound 1]

Reply text:
1. > 70%
2. 10 to 50%
3. > 70%
